- System: HEK-293T
- RUN_DESCRIPTION: Multiplex assay against HEK293T
- Assay type: toxicity, cell-based
- PARTICULARS: human, 12 h, 10 µM, compound concentration 10 uM, replicate 2
RESULT_TYPE: Population Mitotic Cells (%)
Only the number, expressed in %, is required.

In the examples that follow, each entry is paired with its recorded Population Mitotic Cells (%).
- COMPOUND: "CC(=O)Nc1cccc2c1c(Sc1ccc(Cl)cc1)c(C)n2CC(=O)O"
  READOUT_UNIT: "%"
  TEST_RESULT: 39
- COMPOUND: "CC(C)(C)c1cc(NC(=O)Nc2ccc(-c3cn4c(n3)sc3cc(OCCN5CCOCC5)ccc34)cc2)no1"
  READOUT_UNIT: "%"
  TEST_RESULT: 26
- COMPOUND: "COc1cccc2c1c(NS(=O)(=O)c1ccc(Cl)s1)nn2Cc1cccc(CNC(=O)C(C)(C)O)c1"
  READOUT_UNIT: "%"
  TEST_RESULT: 65
- COMPOUND: "Cc1noc(-c2ccc(-c3ccc(CC(=O)O)cc3)cc2)c1NC(=O)O[C@H](C)c1ccccc1Cl"
  READOUT_UNIT: "%"
  TEST_RESULT: 58
- COMPOUND: "CC(/C=C1\\SC(=S)N(CCCC(=O)Nc2ccc(C(=O)O)c(O)c2)C1=O)=C\\c1ccccc1"
  READOUT_UNIT: "%"
  TEST_RESULT: 48
- COMPOUND: "CC[C@@H](C)Nc1nc(C)nc2c(-c3ccc(OC)nc3C)c(C)nn12"
  READOUT_UNIT: "%"
  TEST_RESULT: 58
- COMPOUND: "CN1CCN(c2cc(-c3ccccc3)nc(N)n2)CC1"
  READOUT_UNIT: "%"
  TEST_RESULT: 63
- COMPOUND: "Cc1onc(-c2ccccc2Cl)c1C(=O)N(C)c1ccc(Cl)cc1"
  READOUT_UNIT: "%"
  TEST_RESULT: 54
- COMPOUND: "CC(C)COc1ccc(CNC(=O)N(Cc2ccc(F)cc2)C2CCN(C)CC2)cc1"
  READOUT_UNIT: "%"
  TEST_RESULT: 20
- COMPOUND: "N#Cc1cc(F)cc(-c2nc(-c3ccc(F)cn3)no2)c1"
  READOUT_UNIT: "%"
  TEST_RESULT: 54

Tell me reported Population Mitotic Cells (%) for CCCOc1ccc2[nH]cc(C3=CCNCC3)c2n1.Cl , tested with HEK-293T. 44

And what about the compound COc1ccccc1N1CCN(C[C@@H](C(=O)NC(C)(C)C)c2ccccc2)CC1.Cl.Cl ? 41

====

- Test system: HEK-293T
- RUN_DESCRIPTION: Multiplex assay against HEK293T
- Type: toxicity, cell-based
- PARTICULARS: human, 48 h, 10 µM, compound concentration 10 uM, replicate 1
RESULT_TYPE: Population Mitochondria Different-Phenotype (%)
Only the number, expressed in %, is required.

- MOLECULE: "COc1ccccc1N1CCN(C[C@@H](C(=O)NC(C)(C)C)c2ccccc2)CC1.Cl.Cl"
  MEASURED_TARGET: "HEK-293T"
  TEST_RESULT: 59
- MOLECULE: "CCCCCC(O)/C=C/[C@H]1C(=O)CC(O)C1C/C=C\\CCCC(=O)O (stereo partly drawn)"
  MEASURED_TARGET: "HEK-293T"
  TEST_RESULT: 17
- MOLECULE: "CCCCC(=O)N(Cc1ccc(-c2ccccc2-c2nnn[nH]2)cc1)[C@H](C(=O)O)C(C)C"
  MEASURED_TARGET: "HEK-293T"
  TEST_RESULT: 8
- MOLECULE: "CC(/C=C1\\SC(=S)N(CCCC(=O)Nc2ccc(C(=O)O)c(O)c2)C1=O)=C\\c1ccccc1"
  MEASURED_TARGET: "HEK-293T"
  TEST_RESULT: 25
- MOLECULE: "Cc1cnc(-c2cc(N3CCN(C(=O)CCS(C)(=O)=O)CC3)ncc2Cl)c(C)c1"
  MEASURED_TARGET: "HEK-293T"
  TEST_RESULT: 23

Suppose we examine the molecule CN1CCN(c2cc(-c3ccccc3)nc(N)n2)CC1 ; what Population Mitochondria Different-Phenotype (%) value has been reported? 25

And what about the molecule CN[C@@H](C)C(=O)N[C@H](C(=O)N1CCC[C@H]1C(=O)Nc1snnc1-c1ccccc1)C1CCCCC1 [GDC-0152] ? 74

And what about the molecule COC[C@@H](c1ccc(C(F)(F)F)cc1)N1CCN(C2(C)CCN(C(=O)c3c(C)ncnc3C)CC2)C[C@@H]1C.O=C(O)/C=C\C(=O)O [VICRIVIROC MALEATE] ? 49

And what about the molecule Cc1c(CC(=O)O)c2cccnc2n1Cc1ccc(S(C)(=O)=O)cc1C(F)(F)F [FEVIPIPRANT] ? 24

And what about the molecule Cl.N=C(N)NC(=O)Cc1c(Cl)cccc1Cl [GUANFACINE HYDROCHLORIDE] ? 31

And what about the molecule CC(C)(C)c1cc(NC(=O)Nc2ccc(-c3cn4c(n3)sc3cc(OCCN5CCOCC5)ccc34)cc2)no1 [QUIZARTINIB] ? 40

And what about the molecule N#Cc1c(Oc2cccc(OS(=O)(=O)CCCC(F)(F)F)c2)cccc1C(F)(F)F ? 44

And what about the molecule Cc1noc(-c2ccc(-c3ccc(CC(=O)O)cc3)cc2)c1NC(=O)O[C@H](C)c1ccccc1Cl ? 40

And what about the molecule C[C@H](N)COC(=O)[C@@H](CCCCN)NC(=O)Cc1c(-c2ccc3ccccc3c2)[nH]c2c1ccc1ccccc12 ? 44

And what about the molecule N#Cc1cc(F)cc(-c2nc(-c3ccc(F)cn3)no2)c1 ? 18

And what about the molecule CN(C)C(=O)Cn1cc(-c2ccc(-c3cncc4ccccc34)cc2)cn1 ? 56

And what about the molecule Cc1cccc(NC(=O)CN2CCC(c3ccccn3)CC2)c1.Cl.Cl ? 45

And what about the molecule CC(C)c1noc(N2CCC(COc3ccc(-c4ccc(S(C)(=O)=O)cc4)nc3)CC2)n1 [GSK-1292263] ? 50

====

Entries and their Population Pyknosed Nuclei (%) values follow.
- Test system: Fibroblast
- RUN_DESCRIPTION: Multiplex assay against human fibroblast
- Format: toxicity, cell-based
- PARTICULARS: 48 h, 1 µM, compound concentration 1 uM, replicate 1
Only the number, expressed in %, is required.

- COMPOUND: "COc1ccccc1N1CCN(C[C@@H](C(=O)NC(C)(C)C)c2ccccc2)CC1.Cl.Cl"
  READOUT_UNIT: "%"
  Population Pyknosed Nuclei (%): 10
- COMPOUND: "CCCCC(=O)N(Cc1ccc(-c2ccccc2-c2nnn[nH]2)cc1)[C@H](C(=O)O)C(C)C"
  READOUT_UNIT: "%"
  Population Pyknosed Nuclei (%): 10
- COMPOUND: "CCCCC1=NC2(CCCC2)C(=O)N1Cc1ccc(-c2ccccc2-c2nnn[nH]2)cc1"
  READOUT_UNIT: "%"
  Population Pyknosed Nuclei (%): 8
- COMPOUND: "Cc1onc(-c2ccccc2Cl)c1C(=O)N(C)c1ccc(Cl)cc1"
  READOUT_UNIT: "%"
  Population Pyknosed Nuclei (%): 10
- COMPOUND: "Cl.NCCc1ccc(O)c(O)c1 [DOPAMINE HYDROCHLORIDE]"
  READOUT_UNIT: "%"
  Population Pyknosed Nuclei (%): 10
- COMPOUND: "C[C@H](N)COC(=O)[C@@H](CCCCN)NC(=O)Cc1c(-c2ccc3ccccc3c2)[nH]c2c1ccc1ccccc12"
  READOUT_UNIT: "%"
  Population Pyknosed Nuclei (%): 12
- COMPOUND: "CC(/C=C1\\SC(=S)N(CCCC(=O)Nc2ccc(C(=O)O)c(O)c2)C1=O)=C\\c1ccccc1"
  READOUT_UNIT: "%"
  Population Pyknosed Nuclei (%): 9
- COMPOUND: "CC(C)COc1ccc(CNC(=O)N(Cc2ccc(F)cc2)C2CCN(C)CC2)cc1"
  READOUT_UNIT: "%"
  Population Pyknosed Nuclei (%): 9

Suppose we examine the compound CCCCCC(O)/C=C/[C@H]1C(=O)CC(O)C1C/C=C\CCCC(=O)O (stereo not given in full) ; what Population Pyknosed Nuclei (%) value has been reported? 5

And what about the compound CC[C@@H](C)Nc1nc(C)nc2c(-c3ccc(OC)nc3C)c(C)nn12 ? 15

====

Entries and their Population Healthy Nuclei (%) values follow.
- Tested on: HEK-293T
- RUN_DESCRIPTION: Multiplex assay against HEK293T
- Assay type: toxicity, cell-based
- PARTICULARS: human, 48 h, 10 µM, compound concentration 10 uM, replicate 2
Only the number, expressed in %, is required.

Suppose we examine the molecule C[C@H](N)COC(=O)[C@@H](CCCCN)NC(=O)Cc1c(-c2ccc3ccccc3c2)[nH]c2c1ccc1ccccc12 ; what Population Healthy Nuclei (%) value has been reported? 79
